Where do these numbers come from? They come from patent US20210238304A1.

biological target: human mesothelin (recombinant, soluble) (human) (UniProt Q13421); experiment: SPR BIAcore, parental mAb captured, mesothelin analyte
Sequence (Q13421 other isoform, or with tags, fused parts or gaps limits assumed): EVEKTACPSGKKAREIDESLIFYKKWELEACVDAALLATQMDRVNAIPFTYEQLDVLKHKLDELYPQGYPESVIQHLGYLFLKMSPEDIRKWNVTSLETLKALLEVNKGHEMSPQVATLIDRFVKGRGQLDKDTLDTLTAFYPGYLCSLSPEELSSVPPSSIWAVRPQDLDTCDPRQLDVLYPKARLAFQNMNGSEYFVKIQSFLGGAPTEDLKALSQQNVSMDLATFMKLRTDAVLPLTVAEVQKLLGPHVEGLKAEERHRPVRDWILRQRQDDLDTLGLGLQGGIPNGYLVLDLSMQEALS
# koff values compiled below
Use s⁻¹ as the unit, but write only the number.

Recorded koff, per entry:
33O11 zu (humanized anti-human mesothelin antibody) (antibody, from another filing, V domains shown) VH: EVQLVESGGGLVQPGGSLRLSCAASGISLSSDAISWVRQAPGKGLEYIGIINGGGNTYYASWAKGRFTISRHNSKNTLYLQMNSLRAEDTAVYYCARGIQHGGGNSDYYYYGMDLWGQGTLVTVSS VL: DIQMTQSPSSLSASVGDRVTITCQASQSISSVLSWYQQKPGKAPKLLIYLASTLASGVPSRFSGSGSGTDFTLTISSLQCEDIATYYCQTNYGTSSSNYGFAFGGGTKVEIKR
0.00065
201C15 (rabbit-human chimeric anti-human mesothelin antibody) (antibody, from another filing, V domains shown) VH: QSVKESGGRLVTPGTPLTLTCTVSGIDLSSYAMGWFRQAPGKGLEYIGTINIGGRVYYASWAKGRFTISRTSTTVDLKAPSLTAEDTATYFCARYYNGGSYDIWGPGTLVTVSL VL: DVVMTQTPASASEPVGGTVTIKCQASESIYRVLAWYQQKPGQPPKLLIYDTSTLASGAPSRFKGSGYGTEFTLTISGVQCEDAATYYCQGGYYADSYGIAFGGGTEVVVKR
0.00026
346C6 (rabbit-human chimeric anti-human mesothelin antibody) (antibody, from another filing, V domains shown) VH: QSVEESGGRLVKPDESLTLTCTASGFSLSSYAMIWVRQAPGEGLEWIGTISTGGITYYASWAKGRFTISKTSTTVDLKITSPTTEDTATYFCARGGYAASSAYYLPYYFDLWGQGTLVTVSS VL: AAVLTQTPSPVSAAVGGTVTISCQSSQSVYNNNNLAWFQQKPGQPPKLLIYLASTLASGVPSRFSGSGSGTQFTLTISGVQCDDAATYYCLGGCDDDADTFAFGGGTEVVVKR
0.00049

Turning to the following binder.
The binder identified as 111B10 (rabbit-human chimeric anti-human mesothelin antibody) (antibody, from another filing, V domains shown) VH: QSVEESGGRLVTPGTPLTLTCTVSGFSLNNYAMSWVRQAPGKGLEWIGSISTGGLAFYANWAKGRFTISRTSTTVDLKMTSLTTEDTATYFCGRNGGGSYIFYYFDLWGQGTLVTVSS VL: AFELTQTPSSVEAAVGGTITIKCQASQSISSYLSWYQQKPGQPPKLLIYSASTLASGVSSRFKGSGSGTEYTLTISDLECADAATYFCQSYYDIGTSTFGGGTEVVVKR registered its koff at 0.0039
